B1: NECAB1 (parent)
chain: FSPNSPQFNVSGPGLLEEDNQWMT

Variants of: B1
Assay: protein stability index of a GFP-peptide fusion (GPS, HEK-293T) (PSI 1-6); higher = more stable;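 note: lentivirally expressed fusions sorted by FACS into six bins by GFP to DsRed ratio, PSI derived from sequencing read proportions per bin multiplied by bin number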
Conditions: c terminus: a fixed tail appended
measuredQuantity: protein stability index
Numbers only.

I have 6 variants here; please give me protein stability index for each one.
1. FSPNSPQFNVSGPGLLVEDNQWMT [E17V]
2. FSPNSPQFNVSGPGLLEEVNQWMT [D19V]
3. FSPNSPQFNVSGPGLLEEDNQWVT [M23V]
4. FSPNSPQFNVSGPMLLEEDNQWMT [G14M]
5. FSPNSPQFNVNGPGLLEEDNQWMT [S11N]
6. FSPESPQFNVSGPGLLEEDNQWMT [N4E]

2.33
2.1
2.71
2.35
3.31
3.59
